Assay: NCI Yeast Anticancer Drug Screen. Data for the bub3 strain (AID 167)
Conditions: S. cerevisiae bub3 mutant strain, at 50.0 µM, stronger effect = higher value
This is part of a sample that, as a whole, favours compounds with a hit. Of some 79,000 tested, about 15% had one in any assay.
Listing of entries alongside the reported growth inhibition.
# number only, unit % dropped from output

Before answering, review these 5 worked examples.
> print(dat)
                                   molecule         observable  reported
1  CN1C(=S)C(=N)OC1c1ccccc1F (stereo unspecified)  growth inhibition      89.2
2  C=C1CC(Cn2cc(Br)c(=O)[nH]c2=O)(c2ccc(Br)cc2)OC1=O (stereo unspecified)  growth inhibition      97.2
3  O=C(NCCCCCN1CCC2(CCCCC2)CC1)C(c1ccccc1)C1CCCCC1 (stereo unspecified)  growth inhibition      99.6
4  CC1=C/C(=C\C=C2/N(C)c3c(C)cccc3C2(C)C)C(=O)c2ncccc21  growth inhibition      64.6
5                 O=C1OC(=O)c2cccc3cccc1c23  growth inhibition      99.5

Task: If you can, please state the reported growth inhibition value of `COc1ccc(C=Nc2ccccc2O)cc1` .
Result: 76.6

Task: Suppose we examine the molecule `CC(=O)C1=C(C)O/C(=C/c2ccc(Cl)cc2)C1=O` ; what growth inhibition value has been reported?
Result: 83.2

* * *

Experiment: NCI Yeast Anticancer Drug Screen. Data for the bub3 strain (AID 167)
Settings: S. cerevisiae bub3 mutant strain, at 50.0 µM (retest, dose inferred, filed as 5.0)
The panel holds about 79,000 compounds, 15% with a hit somewhere; the sample as a whole holds those more often. Activity calls are given as the source filed them. No stated cut-off is given here; in the data, active means growth inhibition above about 70%; inactive means the rest.
Outcome field: choose from 1 (yes) = active, 0 (no) = inactive

> print(dat)
                     compound  class.label
1  Oc1c(Br)ccc2c(O)c(Br)ccc12      1 (yes)
2      CCOC(=O)c1csc(=S)[nH]1      1 (yes)

Task: Called result for Cc1cccc(N2C(=O)c3ccccc3C2(c2ccccc2)N2CCCCC2)c1 (centres undefined)
Result: 0 (no)

Task: Please indicate how the test categorized `COc1ccc2cc(Br)ccc2c1` .
Result: 0 (no)

Task: What is the recorded call for this compound in the test? `COc1ccc(OC(=O)c2ccccc2)c2c1C(=O)C=CC2=O`
Result: 0 (no)

* * *

Experiment: NCI Yeast Anticancer Drug Screen. Data for the sgs1 mgt1 strain (AID 161);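 note: 0% = growth of cultures given vehicle only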
Conditions: S. cerevisiae sgs1 mgt1 strain, at 5.0 µM (retest, dose inferred, filed as 0.5), stronger effect = higher value
Compounds without any hit were thinned out: in the full panel of roughly 79,000, 15% have a hit.
Reported growth inhibition by item:
The response must be a number in % with no trailing unit.

Some compounds with recorded growth inhibition:
compound	reported
CC1SC2=NC3=C(c4ccccc4C3=O)C(c3ccc(Cl)cc3)N2C1=O (configuration not stated)	-6
CC(NNC(=S)N1CC2CCC(CC2)C1)c1nccc2ccccc12 (configuration not stated)	98
CCCCCCC/C=C\C(=O)O	1
CCOc1ccc2c(c1)n([O-])c1ccccc1[n+]2=O	55
CCOC(=O)OCCSCCOC(=O)OCC	-5
O=Nc1ccc(O)c(/C=N/O)c1	6
COC1=CC(=O)c2c(ccc3ncnc(N)c23)C1=O	14
O=C(O)C(=O)Cc1ccccc1[N+](=O)[O-]	-3
CCN(c1ccc(C=O)cc1)c1ccc([N+](=O)[O-])cc1[N+](=O)[O-]	3
CCCCCCCCCCCC[n+]1ccc(C)cc1	33

Task: Name the recorded growth inhibition for CCC(C)C(C(=O)NOC(=O)c1ccccc1)/C(N)=N/OC(=O)c1ccccc1 (configuration not stated) .
Result: 96

Task: GET /values?readout=growth inhibition&item= `COc1ccc(Cc2nncc3ccccc23)cc1OC`
Result: -3

Task: Entry under review: `Cc1ccc2[nH]c3c(c2c1)CCC/C3=N/N=C(N)N` . Reported growth inhibition?
Result: 24

Task: Name the reported growth inhibition value associated with the compound `COc1ccc(OC)c(/C=C/NC=O)c1`
Result: -12

Task: Return reported growth inhibition; argument: `O=C(O)c1ccccc1C(=O)c1ccc2c(c1)Cc1ccccc1-2`
Result: -4

Task: Quick check: growth inhibition of `C=Cc1cc(N=Nc2ccc([N+](=O)[O-])cc2)ccc1N(C)C` ?
Result: 3

Task: Which growth inhibition reading was recorded for the compound CC1CCN(CCOC(=O)C(c2ccccc2)C2C=CCCC2)C1C (configuration not stated) ?
Result: 53

Task: Look up growth inhibition: `FC(F)(F)c1ccc(NC(=S)SCc2ccc(Cl)cc2)cc1`
Result: 13

Task: I have this compound here, CCCC1=C(c2ccccc2)C(O)(c2ccccc2)C(CCC)C1=O (configuration not stated) , and I need its recorded growth inhibition.
Result: 0

Task: growth inhibition lookup needed for N#CC(Nc1cccc(C(F)(F)F)c1)c1ccccc1C(F)(F)F (configuration not stated) , thanks.
Result: -11

Task: Fill in the blank: the reported growth inhibition of CC(C)C(CC(C)(C)C)OC(=O)Nc1cccc2ccccc12 (configuration not stated) is ____.
Result: 0

Task: Consider the compound `COc1cc2cnc(-c3ccccc3)cc2cc1OC` and give its measured growth inhibition.
Result: 5

Task: Can you share its growth inhibition? I mean this compound: `CN(C)C1=NC(N(C)C)=C2C=CC=C12`
Result: -4

Task: Fill in: growth inhibition of `OCCc1ccc(-n2cnc3c(Nc4ccc(Cl)cc4)ncnc32)cc1` is ___
Result: -4

Task: Using the record for `COC(=O)Nc1nc2ccc(CCC(=O)c3c(C)oc(C)c3-c3ccc(NC(C)=O)cc3)cc2[nH]1` , report its growth inhibition.
Result: 5

Task: Given the compound CC(=O)C1(O)C(Br)CC2C3CC=C4CC(O)CCC4(C)C3CCC21C (configuration not stated) , what is its reported growth inhibition?
Result: 46

Task: Given `CCN(CC)c1ccc2nc3ccc(N(CC)CC)cc3[n+](-c3ccccc3)c2c1` , state its recorded growth inhibition.
Result: 92

Task: Endpoint output: growth inhibition of `O=C1/C(=C/c2cccc([N+](=O)[O-])c2)Sc2scc(-c3ccc([N+](=O)[O-])cc3)[n+]21` . Value?
Result: 6

Task: Using the record for CC(C)NC(=O)OCCS(=O)c1c(Cl)c(Cl)nn1C (configuration not stated) , report its growth inhibition.
Result: -5

Task: Fill blank: measured growth inhibition of the compound `CC(=O)/C(=C\c1c(Cl)cccc1Cl)C(=O)CCN(C)C` is ____.
Result: 8

Task: Which growth inhibition value belongs to `O=C(Nc1ccc(F)cc1)N1CCCCC1` ?
Result: 40

Task: Return reported growth inhibition; argument: `C1=C(CC2=C[P+](c3ccccc3)(c3ccccc3)C=C(c3ccccc3)O2)OC(c2ccccc2)=C[P+]1(c1ccccc1)c1ccccc1`
Result: 35

* * *

Assay: NCI Yeast Anticancer Drug Screen. Data for the rad50 strain (AID 155);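 note: 0% = growth of vehicle-only cultures of the same strain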
Conditions: S. cerevisiae rad50 strain growth inhibition; at 50.0 µM; stronger effect = higher value
Compounds without any hit were thinned out: in the full panel of roughly 79,000, 15% have a hit.
# label = y if growth inhibition >= 90% else n

> print(dat)
                            smiles.str  class.label
1  CNC(=S)N/N=C(\C=N\NC(=S)NC)c1ccccc1            n

Task: Determine whether this compound has growth inhibition no lower than 90%: `O=C(O)c1ccccc1-c1ccccc1C(=O)Nc1ccc2c(c1)Cc1cc(F)ccc1-2`
Result: y

Task: Does growth inhibition meet or surpass 90% for `CNS(=O)(=O)c1ccccc1C=C(c1ccccc1)c1ccccc1` ?
Result: y

Task: Does the compound `Cc1cc2nc(-c3ccccc3[N+](=O)[O-])[nH]c2cc1C` have recorded growth inhibition that is 90% or more?
Result: n

Task: Evaluate `CCc1cccc(CC)c1NC1=C(Cl)C(=O)c2ccccc2C1=O` : growth inhibition at minimum 90%?
Result: n

Task: Reported growth inhibition at or above 90%? `CCOC(=O)N1CCN(CCCCCCOc2c(Cl)cc(Cl)cc2Cl)CC1`
Result: y

* * *

Assay: NCI Yeast Anticancer Drug Screen. Data for the cln2 rad14 strain (AID 165);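 note: 0% = growth equal to vehicle treated cultures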
Settings: S. cerevisiae cln2 rad14 strain, at 5.0 µM (retest, dose inferred, filed as 0.5), stronger effect = higher value
About 79,000 compounds went through this panel and 15% of them were active in at least one assay; those are over-represented in the sample as a whole.
observable: growth inhibition (%)
Reply numerically in %, unit not repeated.

See these solved cases before continuing.
> print(dat)
                                   molecule  reported
1               N=C1C(=O)c2ccccc2-c2ccccc21       -75
2  Nc1c(-c2ccc(C3=NCCN3)cc2)[nH]c2cc(C3=NCCN3)ccc12        13
3                CCCCCCCCCCCC[n+]1ccc(C)cc1        20
4  CC(=O)OC[C@@]1(C)[C@@H]2CC[C@]3(C)[C@H](C(=O)C=C4[C@@H]5CC(C)(C)CC[C@]5(C(=O)O)CC[C@]43C)[C@@]2(C)CC[C@@H]1OC(C)=O        39
5  CC(C)C(Br)CC/C(CBr)=C(\Cl)CCl (stereo unspecified)        17

Task: Which value of growth inhibition has been reported for CC12CC(O)C3C(CCC4CCCCC43C)C1CC/C2=N/O (stereo unspecified) in the records?
Result: 8
